From: PubChem BioAssay AID485297

# assay_summary: qHTS Assay for Rab9 Promoter Activators; note: nearly all actives have a fitted effect of over 60% in size
# condition_notes: Huh7 Rab9 promoter-luciferase reporter, luminescence, 24 h; series mostly up to 9.22 µM
# Source text: NIH Chemical Genomics Center [NCGC] NIH Molecular Libraries Probe Production centers Network [MLPCN] […] The Rab9 promoter is cloned in front of the luciferase reporter gene, therefore […] promoter activation results in luciferase expression. […] 7.Read using the luminescence protocol on the ViewLux plate reader (Perkin Elmer).
In all, about 320,000 compounds went through this assay and about 9,100 (2.8%) were called active. Not shown: some 3% with an inconclusive outcome. Calls come from the whole dose curve; as a rule, active = well fitted activation curve with a large enough effect; inconclusive = small, poorly fitted or top-dose-only effect; inactive = no such curve, though single readings can be large or run the other way. This excerpt belongs to a sample that is enriched for actives.
Just give me one of these, please: true for active, false for inactive

Please review the entries below; each comes with its answer.
>>> assigned_label("CCOc1ncccc1C(=O)OCC(=O)N1c2ccccc2CC1C (configuration not stated)")
"false"
>>> assigned_label("COC(=O)c1ccc(/C=N/NC(=O)C(=O)N2CCCCCC2)cc1")
"false"
>>> assigned_label("O=C(/C=C/c1ccc2c(c1)OCO2)NCc1ccc(F)cc1")
"false"
>>> assigned_label("COc1cccc(C(=O)Nc2cccnc2)c1OC")
"false"
>>> assigned_label("O=C(NCCc1ccc(C(F)(F)F)cc1)c1ccc2c(c1)OCO2")
"false"
>>> assigned_label("CCc1ccc(NC(=O)N2CCN(c3ccccc3)CC2)cc1")
"false"

For CCCCN(CC)C(=O)c1ccccc1Oc1ccccc1 , what call appears in the results of this test? false
